# Tested on: SF-295 CNS
# Method notes: NCI-60 one-dose screen, 48 h (100 = growth as untreated, 0 = no growth, -100 = all killed)
# Condition notes: 10 µM unless noted
# Experimental: Cells are grown in 96 well plates and exposed to the test compound for 48 hours. Compounds are tested at a single concentration, which is 10^-5 M for most compounds. The reported endpoint is percent growth (GI% or GIPRCNT), where numbers from 0 - 100% represent growth inhibition, and numbers from -100% - 0 represent cell death. For example, a value of 40 represents 60% growth inhibition. A value of 0 means no net growth occurred over the course of the experiment. […]
About 83,000 compounds went through this panel and 20% of them were active in at least one assay; those are over-represented in the sample as a whole.
Endpoint: growth (%)
Give just the number in %; leave the unit off.

Write down the reported growth of "CCc1nnc(NC(=O)c2cc(-c3ccc(Cl)cc3Cl)oc2C)s1" , test system: SF-295 CNS. 94.2

Consider next the molecule CC[C@]12CC(C(=O)OC)=C3Nc4ccccc4[C@@]34CCN(C14)[C@@H]1c3cc4c(cc3O[C@@H]1[C@H]2O)NC1=C(C(=O)OC)C[C@@]2(CC)C3N(CC[C@@]143)C[C@H]1O[C@H]12 (stereo not given in full) in the same way. 9.12

Note, next up: "O=C(/C=C/c1ccc(F)cc1)Nc1cccc2cccnc12" 111

Also, "Nc1ccc(Nc2ncnc3sc4c(c23)CCN(Cc2ccccc2)C4)cc1" please. 97.8

Proceed to "CC(=O)OCCCCN1C=C/C(=C\C(=O)n2ccc3ccccc32)c2ccccc21" 103

====

# System: OVCAR-4 ovarian
# Method notes: NCI-60 one-dose screen, 48 h (100 = growth as untreated, 0 = no growth, -100 = all killed)
# Condition notes: 10 µM unless noted
This is part of a sample that, as a whole, favours compounds with a hit. Of some 83,000 tested, about 20% had one in any assay.
Endpoint: growth (%)
Numeric only. Scale: %

CSc1ccc(C(=NNS(=O)(=O)c2ccc(C)cc2)c2ccc(Cl)cc2)cc1 | 102
CCOC(=O)c1cccc(NC2=C(Cl)C(=O)C(C)=C(C)C2=O)c1 | -4.17
Cc1ccc2c(n1)C(=O)C(Cl)=C(Nc1ccc(C(C)C)cc1)C2=O | -74

Give its growth value. Item: "Cc1ccc(NC(=O)Nc2nc3ccc([N+](=O)[O-])cc3s2)cc1" -6.09

Entry Cc1[nH]c(C(=O)Nc2ccc(C(N)=O)cc2N2CCOC(C)C2)c(Cl)c1Cl (stereo not given) please 97.9

Next compound: "O=C(COc1ccc(/C=C2\C(=O)Nc3ccc(Cl)cc32)cc1)Nc1ccc(Cl)cc1" 59.2

What would you report for "Clc1ccc2c(N/N=C/c3c[nH]c4ccccc34)ccnc2c1" ? -61.2

====

compounds and their reported growth
# Test system: HS 578T breast
# Method notes: NCI-60 one-dose screen, 48 h (100 = growth as untreated, 0 = no growth, -100 = all killed)
# Condition notes: 10 µM unless noted
The panel holds about 83,000 compounds, 20% with a hit somewhere; the sample as a whole holds those more often.
Please give a number only; it is taken to be in %.

Some compounds with known growth results, for comparison:
Cc1ccc2c(n1)C(=O)C(Cl)=C(Nc1ccc(C(F)(F)F)cc1)C2=O | 94.1
CC(=O)/C(N=Nc1ccc2oc(=O)ccc2c1)=C(\C)O | 63.1
O=S(=O)(Oc1ccc(-c2cn3ccoc3n2)cc1)c1cccc(C(F)(F)F)c1 | 98.6
COc1cc(C(=O)c2cc(C(C)=O)c3ccc(C)cn23)cc(OC)c1OC | 59
C[C@]12CC[C@H]3[C@@H](CC=C4C[C@@H](O)CC[C@@]43C)[C@@H]1CC[C@@H]2[C@](C)(O)CCc1cccnc1 | 56

Using the record for "COC(=O)c1cccc(NC2=C(Cl)C(=O)c3nc(C)ccc3C2=O)c1" , report its growth. 102

====

# System: LOX IMVI melanoma
# Method notes: NCI-60 one-dose screen, 48 h (100 = growth as untreated, 0 = no growth, -100 = all killed)
# Condition notes: 10 µM unless noted
This is part of a sample that, as a whole, favours compounds with a hit. Of some 83,000 tested, about 20% had one in any assay.
Condition met means recorded growth is 70% or above; Condition not met means it is below 70%.

COc1ccc(-c2c3c(cn2Cc2cccc(OC)c2)-c2oncc2CCC3)cc1 | Condition met

Hi team, for "CCOP(=O)(OCC)OC[C@]12CCC(C)(C)C[C@H]1C1=CC[C@@H]3[C@@]4(C)CC[C@H](OP(=O)(OCC)OCC)C(C)(C)[C@@H]4CC[C@@]3(C)[C@]1(C)CC2" , is the recorded growth at or above 70%? Condition not met

Would you mind doing "O=C(O)CC1CCN(c2ccc3nnc(Cl)n3n2)CC1" as well? Condition met

// repeat for "CC(=O)Nc1nc(C)c(-c2csc(Nc3ccccc3)n2)s1" and report Condition not met

Again, but for "C[C@]12CC[C@H]3[C@@H](CC=C4C[C@@H](O)CC[C@@]43C)[C@@H]1CC[C@@H]2[C@](C)(O)CCc1cccnc1" Condition met

Further, for "Cc1cccc(N2CCN(C3=C(Cl)C(=O)c4ncccc4C3=O)CC2)c1" ? Condition not met

Again, but for "CC(C)(C)c1cc(NC(=O)Nc2ccc(-c3cn4c5c(sc4n3)CCc3cn(CCCN4CCCCC4)cc3-5)cc2)no1" Condition not met

====

# System: MOLT-4 leukemia
# Method notes: NCI-60 one-dose screen, 48 h
# Condition notes: 10 µM unless noted
# Description: Growth inhibition of the MOLT-4 human tumor cell line is measured as a screen for anti-cancer activity. Cells are grown in 96 well plates and exposed to the test compound for 48 hours. Compounds are tested at a single concentration, which is 10^-5 M for most compounds. The reported endpoint is percent growth (GI% or GIPRCNT), where numbers from 0 - 100% represent growth inhibition, and numbers from -100% - 0 represent cell death. For example, a value of 40 represents 60% growth inhibition. […]
Compounds without any hit were thinned out: in the full panel of roughly 83,000, 20% have a hit. The source made the active and inactive calls. Rule for the calls: active = growth percent below 10; inactive = the rest.
Bench note: report the call from YES for active, NO for inactive

Would you please look over these solved cases?
C#C[C@]1(O)CC[C@H]2[C@@H]3CC=C4c5sc(N(C)c6ccccc6)nc5CC[C@]4(C)[C@H]3CC[C@@]21C | NO
Cc1ccc(-c2nc(SCC(=O)c3ccccc3)nc(Nc3ccc(S(N)(=O)=O)cc3)c2C#N)cc1 | NO
COc1ccccc1/C=C1\Oc2ccc(O)c(O)c2C1=O | NO
CC1=C(C)C(=O)C(Nc2ccc3c(c2)OCO3)=C(Br)C1=O | YES
CCC(=C(c1ccc(OCCN2CCCCCC2)cc1)c1ccc(OCCN2CCCCCC2)cc1)c1ccc(Cl)cc1 | YES

So what was the verdict on "Nc1nc(=O)n([C@H]2C[C@H](O)[C@@H](CO)O2)cc1C=O" in this test? NO

What about this compound? "Cc1ccc(S(=O)(=O)NCCCNc2nc(Nc3ccc(N4CCN(C)CC4)cc3)nc3ccsc23)cc1" YES

Record: "C[C@@H]1OCC2(CCN(c3cnc(C(=O)Nc4cc(F)cc5cccnc45)cn3)CC2)[C@@H]1N" NO

====

# Tested on: T-47D breast
# Method notes: NCI-60 one-dose screen, 48 h (100 = growth as untreated, 0 = no growth, -100 = all killed)
# Condition notes: 10 µM unless noted
Compounds without any hit were thinned out: in the full panel of roughly 83,000, 20% have a hit.
# condition met = growth below 50% (exclusive); condition not met = growth at/above 50%

A selection of reference data follows.
C/C(=C(/C)C1CC1CCNC1CCC(NC(=O)OC(C)(C)C)CC1)c1ccccc1 (centres undefined) | condition met
O=c1c2cc(-c3ccc(F)cc3F)ccc2n(Nc2ccccc2)c(=O)n1-c1cccc(C(F)(F)F)c1 | condition met
CCc1cccc2c3c(sc12)C(c1ccc(F)cc1)C(C#N)=C(/N=C/c1ccc(Cl)cc1)O3 (centres undefined) | condition met
CC1CCN(CC(=O)Nn2c(COc3ccccc3)nc3ccccc3c2=O)CC1 | condition not met
CCC1=Cc2c(OC)cccc2OC12C=Cc1c(OC)cccc1O2 (centres undefined) | condition met
CCNC(=O)Oc1ccc(/C(=C(/C)c2ccc(OC)cc2)c2ccc(OCCN3CCCCCC3)cc2)cc1 | condition met
O=C(CSc1nnc(-c2ccc(Cl)cc2)n1-c1ccccc1)Nc1ccc(Cl)cc1 | condition met
Cn1c(SCC(=O)c2ccco2)nc2ccccc2c1=O | condition not met
CCN(CC)S(=O)(=O)c1ccc(-c2nc(C(Cl)Cl)nc3cc(-c4ccc(F)cc4)nn23)cc1 | condition met
CCC(=C(c1ccc(OCCN2CCCCCC2)cc1)c1ccc(OCCN2CCCCCC2)cc1)c1ccc(Cl)cc1 | condition met

Identify whether the compound COc1ccc(C2CC(c3cccc(OCCCCOc4cccc(C5=NOC(c6ccc(OC)cc6)C5)c4)c3)=NO2)cc1 (centres undefined) records growth below 50%. condition not met

Here is the next compound: "C[C@]12CC[C@H]3[C@@H](CC=C4C[C@@H](O)CC[C@@]43C)[C@@H]1CC[C@@H]2[C@](C)(O)CCc1cccnc1" condition met

// query: "O=C(CSc1nc2ccccc2c(=O)n1-c1ccc(Cl)cc1)N/N=C/c1ccc(Oc2ccc(Cl)cc2)cc1" condition met

Next record, please: "O=C(CCCCCCNC(=O)C(O)(O)C(F)(F)F)Nc1ncc(-c2ccc(Br)cc2)s1" condition met

Try this compound next: "CC1=C(C)C(=O)C(Nc2cccc(C(=O)OC(C)(C)C)c2)=CC1=O" condition not met

These measurements were taken from PubChem BioAssay (NCI).
